Tested on: Saccharomyces cerevisiae;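 further: PSI is a weighted mean of sequencing reads over stability bins, variants kept only with over 10 reads, mCherry proximal and sfGFP distal, peptide attached via GGGS linker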
test_details: protein stability index of tFT-peptide fusion (C-terminal peptide) (PSI (0-1 scale)); higher = more stable (slower turnover)
particulars: genetic background: wild type; temperature: 30 C
Response key: true means protein stability index >= 0.7; false means protein stability index < 0.7.

{"columns": ["sequence_string", "label_value"],
 "data": [
  ["SYETLRTPARIA", "false"],
  ["GSAACPVRGRFF", "false"],
  ["SLLLPLFLPPSL", "true"],
  ["SSAPCLRIFVTR", "true"],
  ["LPLPPASRSAPP", "false"],
  ["RGGWGGYRGGVP", "true"],
  ["RLFYRLSFVYFL", "false"],
  ["LSNFLFYGLCPG", "false"]
]}

Would you kindly look at the next entry?
Input: Confirm if protein stability index reported for the sequence QERKKKRENKKE is 0.7 or above.
Output: false
